# Tested On: UniProt P18825
# Sequence (P18825 whole entry, species assumed): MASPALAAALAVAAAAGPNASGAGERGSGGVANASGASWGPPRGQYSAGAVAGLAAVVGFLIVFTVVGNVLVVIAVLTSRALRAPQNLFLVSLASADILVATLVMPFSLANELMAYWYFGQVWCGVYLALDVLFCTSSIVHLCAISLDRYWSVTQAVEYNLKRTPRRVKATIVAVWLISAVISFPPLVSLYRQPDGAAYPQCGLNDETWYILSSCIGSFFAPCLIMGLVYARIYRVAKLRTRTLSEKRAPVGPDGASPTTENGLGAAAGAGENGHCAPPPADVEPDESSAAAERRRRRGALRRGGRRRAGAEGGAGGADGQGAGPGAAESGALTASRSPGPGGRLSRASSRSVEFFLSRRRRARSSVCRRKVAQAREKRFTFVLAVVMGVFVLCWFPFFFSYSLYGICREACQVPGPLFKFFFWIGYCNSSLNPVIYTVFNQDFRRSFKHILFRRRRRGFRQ
# Procedure Text: GPCR panel, cAMP or calcium FLIPR assays
# Format: cell-based
# Condition Parameters: antagonist

{"Compound": "CC1CCCN1C(=O)c1nc(C(=O)NCC(C)(C)O)sc1-c1ccc(C(O)(C(F)(F)F)C(F)(F)F)c(Cl)c1Cl (stereo not shown) [JNJ-61803534]", "IC50": "> 12.5 µM"}

* * *

# Tested On: ADRA2A (Homo sapiens)
# Sequence (P08913 1-465): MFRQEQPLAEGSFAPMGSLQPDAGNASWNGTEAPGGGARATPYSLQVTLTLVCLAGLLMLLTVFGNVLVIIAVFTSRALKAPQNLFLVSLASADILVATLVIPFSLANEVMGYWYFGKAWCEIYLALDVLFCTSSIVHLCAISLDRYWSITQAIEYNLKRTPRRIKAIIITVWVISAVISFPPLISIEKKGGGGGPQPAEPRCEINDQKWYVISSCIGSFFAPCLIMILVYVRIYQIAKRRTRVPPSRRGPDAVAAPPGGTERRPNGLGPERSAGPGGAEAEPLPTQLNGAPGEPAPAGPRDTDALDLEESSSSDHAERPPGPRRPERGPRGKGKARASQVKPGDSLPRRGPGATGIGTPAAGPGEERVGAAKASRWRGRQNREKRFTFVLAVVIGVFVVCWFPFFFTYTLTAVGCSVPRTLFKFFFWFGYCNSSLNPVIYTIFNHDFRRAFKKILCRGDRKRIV
# Procedure Text: GPCR panel, cAMP or calcium FLIPR assays
# Assay type: cell-based
# Condition Parameters: antagonist

{"Compound": "CC1CCCN1C(=O)c1nc(C(=O)NCC(C)(C)O)sc1-c1ccc(C(O)(C(F)(F)F)C(F)(F)F)c(Cl)c1Cl (stereo not shown)", "IC50": "> 12.5 µM"}

// provenance: paper PMC8155022
